The reported numbers originate from patent US8389730B2.

# TEST_SYSTEM: Trp-p8 (Homo sapiens, UniProt Q7Z2W7, T58I)
# Construct: expressed in transfected cells
# Sequence (Q7Z2W7 whole entry T58I): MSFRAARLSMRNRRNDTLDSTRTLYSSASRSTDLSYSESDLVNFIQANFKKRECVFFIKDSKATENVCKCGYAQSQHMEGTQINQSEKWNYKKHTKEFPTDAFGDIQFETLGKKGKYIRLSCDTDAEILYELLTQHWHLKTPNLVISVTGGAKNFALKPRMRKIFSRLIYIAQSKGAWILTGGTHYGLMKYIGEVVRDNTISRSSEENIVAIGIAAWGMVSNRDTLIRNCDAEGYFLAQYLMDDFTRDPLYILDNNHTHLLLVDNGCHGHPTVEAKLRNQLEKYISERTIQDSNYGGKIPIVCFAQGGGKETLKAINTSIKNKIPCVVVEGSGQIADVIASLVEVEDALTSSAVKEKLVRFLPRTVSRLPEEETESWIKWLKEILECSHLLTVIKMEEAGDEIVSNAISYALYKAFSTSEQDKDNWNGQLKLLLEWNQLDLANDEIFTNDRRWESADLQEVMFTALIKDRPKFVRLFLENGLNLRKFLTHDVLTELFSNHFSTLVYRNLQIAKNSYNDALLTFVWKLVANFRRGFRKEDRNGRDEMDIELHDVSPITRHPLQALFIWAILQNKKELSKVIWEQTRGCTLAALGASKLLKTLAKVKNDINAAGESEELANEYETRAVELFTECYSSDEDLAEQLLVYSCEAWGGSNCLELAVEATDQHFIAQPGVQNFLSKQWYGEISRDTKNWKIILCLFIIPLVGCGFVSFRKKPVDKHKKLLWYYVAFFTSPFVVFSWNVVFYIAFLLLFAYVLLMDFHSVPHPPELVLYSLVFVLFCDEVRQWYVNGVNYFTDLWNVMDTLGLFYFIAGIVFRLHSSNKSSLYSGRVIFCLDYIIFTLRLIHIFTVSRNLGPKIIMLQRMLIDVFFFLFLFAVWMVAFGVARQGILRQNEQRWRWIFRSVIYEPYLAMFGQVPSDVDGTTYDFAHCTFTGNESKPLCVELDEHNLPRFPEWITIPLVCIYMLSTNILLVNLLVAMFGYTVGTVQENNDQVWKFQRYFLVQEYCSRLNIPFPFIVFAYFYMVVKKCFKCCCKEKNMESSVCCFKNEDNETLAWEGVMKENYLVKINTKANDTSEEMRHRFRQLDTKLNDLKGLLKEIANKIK
# METHOD_SUMMARY: Cell viability (ATP) assay for Trp-p8 antagonists: protection of CHO/Trp-p8 cells from toxic control agonist D-1607
# Type: cell-based
# EXPERIMENTAL_CONDITIONS: Table 2, Formula VIII antagonists; 10 μM compound plus toxic concentration of control agonist D-1607, CHO/Trp-p8 cells, 37° C.; ATP level relative to DMSO
// assign Fulfilled if Relative Viability (%) at 10 μM falls strictly below 90%, else Not fulfilled (ties count as Not fulfilled)

Consider the worked cases shown below.
{"COMPOUND": "CC(C)[C@@H]1CC[C@@H](C)C[C@H]1NC(=O)NCCCSC1CCCCC1 [compound 1882]", "ASSIGNED_CATEGORY": "Fulfilled"}
{"COMPOUND": "CCCc1c(C(=O)N[C@@H]2C[C@H](C)CC[C@H]2C(C)C)cnn1-c1ccccc1 [compound 2067]", "ASSIGNED_CATEGORY": "Not fulfilled"}
{"COMPOUND": "CC(C)[C@@H]1CC[C@@H](C)C[C@H]1NC(=O)NCCN(Cc1ccccc1)C(C)C [compound 1885]", "ASSIGNED_CATEGORY": "Not fulfilled"}

Input COc1ccc(C2c3[nH]c4ccccc4c3CCN2C(=O)[C@@H]2C[C@H](C)CC[C@H]2C(C)C)cc1CN1CCc2cc(OC)c(OC)cc2C1C (stereo partly drawn) [compound 2676] ; condition: Relative Viability (%) at 10 μM strictly below 90%. Does it hold?
Fulfilled

Input CC(C)[C@@H]1CC[C@@H](C)C[C@H]1OC(=O)N1CCn2cccc2C1C (stereo partly drawn) [compound 1940] ; condition: Relative Viability (%) at 10 μM strictly below 90%. Does it hold?
Not fulfilled

Input CC(C)[C@@H]1CC[C@@H](C)C[C@H]1NS(=O)(=O)c1c(Cl)cc(Cl)cc1Cl [compound 2131] ; condition: Relative Viability (%) at 10 μM strictly below 90%. Does it hold?
Fulfilled

Input CC(C)CN(CCNC(=O)CO[C@@H]1C[C@H](C)CC[C@H]1C(C)C)CC(C)C [compound 1920] ; condition: Relative Viability (%) at 10 μM strictly below 90%. Does it hold?
Fulfilled

Input COc1ccccc1CNC(=O)CO[C@@H]1C[C@H](C)CC[C@H]1C(C)C [compound 1673] ; condition: Relative Viability (%) at 10 μM strictly below 90%. Does it hold?
Not fulfilled

====

Rel. Viab. (%) at 10 μM listing for selected molecules.
# TEST_SYSTEM: Trp-p8 (Homo sapiens, UniProt Q7Z2W7, T58I)
# Construct: expressed in transfected cells
# METHOD_SUMMARY: Cell viability (ATP) assay for Trp-p8 antagonists: protection of CHO/Trp-p8 cells from toxic control agonist D-1607
# Assay type: cell-based
# EXPERIMENTAL_CONDITIONS: Table 3, Formula VII antagonists; 10 μM compound plus toxic concentration of control agonist, CHO/Trp-p8 cells, 37° C.; ATP level relative to DMSO
# number only, unit % dropped from output

Here's what some known entries look like.
{"MOLECULE": "O=C1C(c2ccc(Cl)cc2)N(C2CCCCCC2)C(=O)CN1C1CCCC1 (stereo not shown)", "TEST_SYSTEM": "Trp-p8 (Homo sapiens, UniProt Q7Z2W7, T58I)", "ENDPOINT_UNIT": "%", "Rel. Viab. (%) at 10 μM": 100}
{"MOLECULE": "O=C1c2ccccc2-c2onc3c(N4CCN(C5CCCCC5)CC4)cc(Nc4ccc5c(c4)OCO5)c1c23", "TEST_SYSTEM": "Trp-p8 (Homo sapiens, UniProt Q7Z2W7, T58I)", "ENDPOINT_UNIT": "%", "Rel. Viab. (%) at 10 μM": 82}
{"MOLECULE": "COc1ccc(N2CCN(CC(O)COC3CC(C)CCC3C(C)C)CC2)cc1.Cl.Cl (stereo not shown)", "TEST_SYSTEM": "Trp-p8 (Homo sapiens, UniProt Q7Z2W7, T58I)", "ENDPOINT_UNIT": "%", "Rel. Viab. (%) at 10 μM": 111}

Read the next record carefully.
Consider the molecule shown here: N#Cc1nc(COc2ccccc2F)oc1N1CCN(c2ccccc2)CC1 What is its recorded Rel. Viab. (%) at 10 μM?
94

====

Relative Viability (%) at 10 μM listing for selected compounds.
# TEST_SYSTEM: Trp-p8 (Homo sapiens, UniProt Q7Z2W7, T58I)
# Construct: expressed in transfected cells
# METHOD_SUMMARY: Cell viability (ATP) assay for Trp-p8 antagonists: protection of CHO/Trp-p8 cells from toxic control agonist D-1607
# Assay type: cell-based
# EXPERIMENTAL_CONDITIONS: Table 2, Formula VIII antagonists; 10 μM compound plus toxic concentration of control agonist D-1607, CHO/Trp-p8 cells, 37° C.; ATP level relative to DMSO
# number only, unit % dropped from output

Here's what some known entries look like.
{"COMPOUND": "Cc1ccnc(N(Cc2ccccc2)C(=O)[C@@H]2C[C@H](C)CC[C@H]2C(C)C)c1 [compound 2639]", "ENDPOINT_UNIT": "%", "Relative Viability (%) at 10 μM": 102}
{"COMPOUND": "CC(C)[C@@H]1CC[C@@H](C)C[C@H]1NCc1c[nH]nc1-c1ccccc1 [compound 2745]", "ENDPOINT_UNIT": "%", "Relative Viability (%) at 10 μM": 62}
{"COMPOUND": "CC(C)[C@@H]1CC[C@@H](C)C[C@H]1NC(=O)[C@@]12CC[C@@](C)(C(=O)O1)C2(C)C [compound 2046]", "ENDPOINT_UNIT": "%", "Relative Viability (%) at 10 μM": 89}
{"COMPOUND": "CCCC1c2cccn2CCN1C(=O)O[C@@H]1C[C@H](C)CC[C@H]1C(C)C (stereo partly drawn) [compound 1941]", "ENDPOINT_UNIT": "%", "Relative Viability (%) at 10 μM": 98}
{"COMPOUND": "CC(C)[C@@H]1CC[C@@H](C)C[C@H]1C(=O)Nc1ccc(S(=O)(=O)N2CCCCCC2)cc1 [compound 2865]", "ENDPOINT_UNIT": "%", "Relative Viability (%) at 10 μM": 91}

Consider the compound shown here: CCCCOc1ccc(-c2n[nH]cc2CN[C@@H]2C[C@H](C)CC[C@H]2C(C)C)cc1 [compound 2777] What is its recorded Relative Viability (%) at 10 μM?
83

Consider the compound shown here: CC(C)[C@@H]1CC[C@@H](C)C[C@H]1OCC(=O)N1c2ccccc2CC1C (stereo partly drawn) [compound 1691] What is its recorded Relative Viability (%) at 10 μM?
92

====

# TEST_SYSTEM: Trp-p8 (Homo sapiens, UniProt Q7Z2W7, T58I)
# Construct: expressed in transfected cells
# METHOD_SUMMARY: Cell viability (ATP) assay for Trp-p8 antagonists: protection of CHO/Trp-p8 cells from toxic control agonist D-1607
# Assay type: cell-based
# EXPERIMENTAL_CONDITIONS: Table 3, Formula VII antagonists; 10 μM compound plus toxic concentration of control agonist, CHO/Trp-p8 cells, 37° C.; ATP level relative to DMSO
Rel. Viab. (%) at 10 μM listing for selected compounds.
# number only, unit % dropped from output

Here's what some known entries look like.
{"COMPOUND": "Cc1ccc(C(c2sc3nc(C)nn3c2O)N2CCN(C(c3ccccc3)c3ccccc3)CC2)cc1 (stereo not shown) [compound 1019]", "Rel. Viab. (%) at 10 μM": 87}
{"COMPOUND": "O=C1CN(c2nc3ccccc3c(=O)n2Cc2ccccc2)CC(=O)N1CCc1ccccc1 [compound 1069]", "Rel. Viab. (%) at 10 μM": 86}
{"COMPOUND": "OC(F)(F)Oc1ccc(Nc2nc(N3CCCCCC3)nc(N3CCN(C45CC6CC(CC(C6)C4)C5)CC3)n2)cc1 [compound 812]", "Rel. Viab. (%) at 10 μM": 99}

Read the next record carefully.
Consider the compound shown here: COc1ccccc1N1CCN(CC(O)COC2CC(C)CCC2C(C)C)CC1.Cl.Cl (stereo not shown) [compound 36] What is its recorded Rel. Viab. (%) at 10 μM?
87

====

# TEST_SYSTEM: Trp-p8 (Homo sapiens, UniProt Q7Z2W7, T58I)
# Construct: expressed in transfected cells
# METHOD_SUMMARY: Cell viability (ATP) assay for Trp-p8 antagonists: protection of CHO/Trp-p8 cells from toxic control agonist D-1607
# Assay type: cell-based
# EXPERIMENTAL_CONDITIONS: Table 2, Formula VIII antagonists; 10 μM compound plus toxic concentration of control agonist D-1607, CHO/Trp-p8 cells, 37° C.; ATP level relative to DMSO
Relative Viability (%) at 10 μM listing for selected molecules.
# number only, unit % dropped from output

{"MOLECULE": "CC(C)[C@@H]1CC[C@@H](C)C[C@H]1OCC(=O)N1CCc2ccccc2C1", "REPORTED_RESULT": 91}

Consider the molecule shown here: CCCC1c2cccn2CCC1C(=O)N[C@@H]1C[C@H](C)CC[C@H]1C(C)C (stereo partly shown) What is its recorded Relative Viability (%) at 10 μM?
88

Consider the molecule shown here: CC(C)[C@@H]1CC[C@@H](C)C[C@H]1NC(=O)CCC1CCCC1 What is its recorded Relative Viability (%) at 10 μM?
89

Consider the molecule shown here: CC(C)[C@@H]1CC[C@@H](C)C[C@H]1NC(=O)N1c2ccccc2CC1C (stereo partly shown) What is its recorded Relative Viability (%) at 10 μM?
91
